ASSAY_SYSTEM: GDP-loaded KRAS (1-169) G12C, C51S, C80L, C118S (Homo sapiens, UniProt P01116, C118S/C51S/C80L/G12C)
Construct: GDP-loaded KRAS (1-169) G12C, C51S, C80L, C118S
PROCEDURE_TEXT: Mass Spectrometry Reactivity Assay (MSRA): covalent adduct of compound and KRAS G12C, Percent Modification
Assay type: binding
CONDITIONS_USED: 5.0 μM compound, 0.017 hr
REPORTED_METRIC: MSRA (% modification) 5.0 μM 0.017 hr (%)

Answered examples (3):
# MOLECULE, MSRA (% modification) 5.0 μM 0.017 hr / %
records = [
    ("C=CC(=O)N1CCN(c2nc(Oc3nn(C)c4c3CCN(C)C4)nc3c(Oc4c(Cl)c(F)cc5[nH]ncc45)nccc23)CC1 [Example 47I]", 14),
    ("C=CC(=O)N1CCN(c2nc(Oc3cccc4c3CN(C)CC4)nc3c(Oc4c(Cl)c(F)cc5[nH]ncc45)nccc23)CC1 [Example 42I]", 73),
    ("C=CC(=O)N1CCN(c2nc(OC3CN(C)CC34CC4)nc3c(Oc4c(Cl)c(F)cc5[nH]ncc45)nc(Cl)cc23)CC1 (stereo not drawn) [Example 36G]", 35),
]

[a] C=CC(=O)N1CCN(c2nc(O[C@@H]3CN(C)C[C@H]3C3CC3)nc3c(Oc4c(Cl)c(F)cc5[nH]ncc45)nccc23)CC1 (racemic) [Example 39I]
[b] C#CCCN1C[C@@H](OC)[C@H](Oc2nc(N3CCN(C(=O)C=C)CC3)c3ccnc(Oc4c(Cl)c(F)cc5[nH]ncc45)c3n2)C1 [Example 44I]
API: POST /compare with a and b ; response names the item with higher MSRA (% modification) 5.0 μM 0.017 hr. Please reply using the label of the selected record.
b
(b: 56%, a: 31%)
